- tested_target: human CB2 receptor (Homo sapiens, UniProt P34972)
- Sequence (P34972 whole entry): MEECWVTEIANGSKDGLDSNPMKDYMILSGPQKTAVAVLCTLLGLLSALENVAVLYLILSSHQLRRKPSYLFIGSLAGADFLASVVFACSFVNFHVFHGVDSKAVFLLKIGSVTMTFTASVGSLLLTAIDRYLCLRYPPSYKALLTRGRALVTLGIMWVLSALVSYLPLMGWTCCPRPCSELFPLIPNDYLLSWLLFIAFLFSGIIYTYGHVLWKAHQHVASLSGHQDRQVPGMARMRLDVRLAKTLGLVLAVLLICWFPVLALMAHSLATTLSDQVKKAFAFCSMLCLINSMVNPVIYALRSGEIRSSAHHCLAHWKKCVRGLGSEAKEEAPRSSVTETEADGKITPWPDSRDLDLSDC
- assay_overview: Functional cell-based assay, CB2 receptor mediated change in CRE β-gal expression (agonist / inverse agonist)
- condition_label: SK-N-MC cells, forskolin, inverse agonist, read-out: CB2 Receptor Functional Inverse Agonist EC50
measured_parameter: EC50 (nM)
# output: bare number, implied unit nM

Examples with their reported EC50 follow.
| compound | EC50 / nM |
| --- | --- |
| CCOC(=O)C1CCc2c(C(=O)NCC34CC5CC(CC(C5)C3)C4)nn(Cc3ccccc3)c2C1 (stereo not shown) | 35 |
| CCOC(=O)C1CCc2c(C(=O)NC3C4(C)CCC(C4)C3(C)C)nn(C3CCCCC3)c2C1 (stereo not shown) | 45.9 |
| COC(=O)[C@H]1CCc2c(c(C(=O)NC3C4CC5CC(C4)CC3C5)nn2C2CCCCC2)C1 (stereo partly shown) | 6 |

Continue with the compound presented below.
Noted EC50 for CCOC(=O)[C@@H]1CCc2c(c(C(=O)NC3C4CC5CC(C4)CC3C5)nn2C2CCCCC2)C1 (stereo partly shown) , tested on human CB2 receptor (Homo sapiens, UniProt P34972): 74

* * *

- tested_target: human CB1 receptor (Homo sapiens, UniProt P21554)
- Construct: expressed in transfected cells; host or cells: SK-N-MC cells, stably transfected with pcDNA3 CB-1 (human); semi-purified membrane pellet
- Sequence (P21554 whole entry): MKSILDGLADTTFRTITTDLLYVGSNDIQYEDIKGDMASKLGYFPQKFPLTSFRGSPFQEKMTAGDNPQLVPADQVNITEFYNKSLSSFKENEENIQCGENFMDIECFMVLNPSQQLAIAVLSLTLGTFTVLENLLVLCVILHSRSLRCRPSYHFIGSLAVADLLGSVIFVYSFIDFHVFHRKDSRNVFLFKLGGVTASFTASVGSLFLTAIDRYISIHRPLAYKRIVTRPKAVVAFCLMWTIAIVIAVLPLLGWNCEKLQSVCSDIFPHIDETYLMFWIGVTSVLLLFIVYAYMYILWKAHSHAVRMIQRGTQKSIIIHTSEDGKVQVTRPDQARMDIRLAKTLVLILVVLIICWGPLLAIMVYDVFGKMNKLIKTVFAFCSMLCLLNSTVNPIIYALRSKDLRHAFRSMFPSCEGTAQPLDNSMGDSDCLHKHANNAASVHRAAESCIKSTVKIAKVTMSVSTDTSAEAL
- assay_overview: biochemical
- Format: binding
pIC50: −log10 of the molar value.
I would appreciate it if you labelled entries Yes when pIC50 is 7 or higher, otherwise No.

Observe how each entry below is paired with its result.
| compound | group |
| --- | --- |
| CC(C)(C)OC(=O)C1CCc2c(c(C(=O)NC3C4CC5CC(C4)CC3C5)nn2C2CCCCC2)C1 (stereo not shown) | No |
| O=C(NN1CC2CCCC2C1)c1nn(-c2ccc(Cl)cc2Cl)c2c1CCC/C2=C\c1ccsc1 (stereo not shown) | Yes |
| CCOC(=O)C1CCc2c(c(C(=O)NC(C)C34CC5CC(CC(C5)C3)C4)nn2C2CCCCC2)C1 (stereo not shown) | No |

query: In plain terms: is recorded pIC50 at least 7 for CC(NC(=O)c1nn(C2CCCCC2)c2c1CC(C(N)=O)CC2)C12CC3CC(CC(C3)C1)C2 (stereo not shown) ?
result: No

query: In plain terms: is recorded pIC50 at least 7 for CC(C)(C)OC(=O)NC1CCc2c(c(C(=O)NC3C4CC5CC(C4)CC3C5)nn2C2CCCCC2)C1 (stereo not shown) ?
result: No

query: In plain terms: is recorded pIC50 at least 7 for CC(NC(=O)c1nn(Cc2ccccc2)c2c1CCCC2)C12CC3CC(CC(C3)C1)C2 (stereo not shown) ?
result: Yes

query: In plain terms: is recorded pIC50 at least 7 for O=C(NNC1CCCCC1)c1nn(Cc2ccccc2)c2c1CCCC2 ?
result: No

query: In plain terms: is recorded pIC50 at least 7 for CCOC(=O)C1CCCc2c1c(C(=O)NCC13CC4CC(CC(C4)C1)C3)nn2Cc1ccccc1 (stereo not shown) ?
result: No

query: In plain terms: is recorded pIC50 at least 7 for O=C(NN1CCCCC1)c1nn(-c2ccc(Cl)cc2Cl)c2c1CCC/C2=C\c1ccc(Cl)s1 ?
result: Yes

query: In plain terms: is recorded pIC50 at least 7 for C[C@H](NC(=O)c1nn(Cc2ccccc2)c2c1CCCC2)C1CCCCC1 ?
result: Yes

query: In plain terms: is recorded pIC50 at least 7 for O=C(NC1C2CC3CC(C2)CC1C3)c1nn(Cc2ccccc2)c2c1CCCC2 (stereo not shown) ?
result: Yes

* * *

- tested_target: human CB2 receptor (Homo sapiens)
- assay_overview: Binding assay, cannabinoid CB2 receptor ([3H]-CP-55,940 displacement)
- condition_label: Cannabinoid CB2 Receptor Binding IC50, human CB2 receptor, SK-N-MC cell membranes, radioligand CP-55,940 0.2 nM
As shown below, each of these compounds has a reported log10(IC50) value.
Hey, these are logged values: log10 of IC50, µM being the unit before logging.

| compound | result |
| --- | --- |
| COC(=O)[C@H]1CCc2c(c(C(=O)NC3C4CC5CC(C4)CC3C5)nn2C2CCCCC2)C1 (some centres unmarked) | -2.52 |
| O=C(NC1C2CC3CC(C2)CC1C3)c1nn(C2CCCCC2)c2c1CC(C(=O)OCc1ccccc1)CC2 (centres unmarked) | -2.00 |
| CC(NC(=O)c1nn(-c2ccc(Cl)cc2Cl)c2c1CCCC2)C12CC3CC(CC(C3)C1)C2 (centres unmarked) | -1.00 |

Data point: CCOC(=O)C1CCCc2c1c(C(=O)NC(C)C13CC4CC(CC(C4)C1)C3)nn2C1CCCCC1 (centres unmarked) ; log10(IC50) = 0.61

Data point: COC(=O)[C@@H]1CCc2c(c(C(=O)NC3C4CC5CC(C4)CC3C5)nn2C2CCCCC2)C1 (some centres unmarked) ; log10(IC50) = -2.40

* * *

As shown below, each of these molecules has a reported pIC50 value.
- tested_target: human CB2 receptor (Homo sapiens)
- assay_overview: Binding assay, cannabinoid CB2 receptor ([3H]-CP-55,940 displacement)
- condition_label: Cannabinoid CB2 Receptor Binding IC50, human CB2 receptor, SK-N-MC cell membranes, radioligand CP-55,940 0.2 nM
// field semantics: pIC50 = negative decimal log of concentration (mol/L)

Examples with their reported pIC50 follow.
| molecule | result |
| --- | --- |
| COC(=O)NC1CCc2c(c(C(=O)NC3C4CC5CC(C4)CC3C5)nn2C2CCCCC2)C1 (stereo not drawn) [compound 88] | 7.06 |
| O=C(NNC1CCCCC1)c1nn(Cc2ccccc2)c2c1CCCC2 [compound 29] | 6.94 |
| CC(C)(Cc1nn(C2CCCCC2)c2c1CCCC2)C(=O)NC1C2CC3CC(C2)CC1C3 (stereo not drawn) [Cpd 66] | 5.85 |
| O=C(NCC(O)c1ccc(Br)cc1)c1nn(C2CCCCC2)c2c1CCCC2 (stereo not drawn) [compound 240] | 5.77 |
| O=C(NCC(O)C1CCCCC1)c1nn(C2CCCCC2)c2c1CCCC2 (stereo not drawn) [compound 185] | 6.92 |
| O=C(Nc1nn(C2CCCCC2)c2c1CCCC2)c1ccc2ccccc2c1 [Cpd 178] | 5.54 |
| CC(c1ccccc1)n1nc(C(=O)NC23CC4CC(CC(C4)C2)C3)c2c1CCCC2 (stereo not drawn) [compound 244] | 7.10 |
| O=C(NC1C2CC3CC(C2)CC1C3)c1nn(CC2CCCCC2)c2c1CCCC2 (stereo not drawn) [compound 122] | 8.82 |
| CCOC(=O)C1CCc2c(c(C(=O)NC3C4(C)CCC(C4)C3(C)C)nn2Cc2ccccc2)C1 (stereo not drawn) [compound 149] | 8.10 |
| CC(C)(C)C1CCc2c(c(C(=O)NC3C4(C)CCC(C4)C3(C)C)nn2C2CCCCC2)C1 (stereo not drawn) [compound 99] | 6.60 |

Data point: CCOC(=O)C1CCc2c(c(C(=O)NC3C4CC5CC(C4)CC3C5)nn2Cc2ccccc2)C1 (stereo not drawn) [compound 226] ; pIC50 = 8.26

Data point: CC(C)(C)C1CCc2c(c(C(=O)NC34CC5CC(CC(C5)C3)C4)nn2-c2ccccc2)C1 (stereo not drawn) [compound 113] ; pIC50 = 6.11

Data point: O=C(NCC(=O)C1CCCCC1)c1nn(C2CCCCC2)c2c1CCCC2 [compound 187] ; pIC50 = 5.80

* * *

- tested_target: human CB1 receptor (Homo sapiens, UniProt P21554)
- Construct: expressed in transfected cells; host or cells: SK-N-MC cells, stably transfected with pcDNA3 CB-1 (human); semi-purified membrane pellet
- assay_overview: biochemical
- Assay type: binding
As shown below, each of these molecules has a reported IC50 value.
# output: bare number, implied unit nM

Examples with their reported IC50 follow.
| molecule | IC50 [nM] |
| --- | --- |
| COC(=O)[C@@H]1CCc2c(c(C(=O)NC3C4CC5CC(C4)CC3C5)nn2C2CCCCC2)C1 (stereo partly shown) | 100 |
| O=C(NN1CC2CCCC2C1)c1nn(-c2ccc(Cl)cc2Cl)c2c1CCCC2=Cc1cccs1 (stereo not shown) | 33 |
| CCOC(=O)[C@@H]1CCCC[C@@H]1NC(=O)c1nn(Cc2ccccc2)c2c1CCCC2 (relative stereo) | 6 |
| CN(C(=O)NC1CCc2c(c(C(=O)NC3C4CC5CC(C4)CC3C5)nn2C2CCCCC2)C1)c1ccccc1 (stereo not shown) | 2000 |
| CCOC(=O)C1CCc2c(C(=O)NC34CC5CC(CC3C5)C4)nn(Cc3ccccc3)c2C1 (stereo not shown) | 30 |

Data point: O=C(NN1CCCC1)c1nn(-c2ccc(Cl)cc2Cl)c2c1CCCC2=Cc1ccsc1 ; IC50 = 21

Data point: CC(NC(=O)c1nn(-c2ccc(F)cc2)c2c1CCCC2)C1C2CC3CC(C2)CC1C3 (stereo not shown) ; IC50 = 1030

Data point: CC12CCC(C1)C(C)(C)C2NC(=O)c1nn(-c2ccc(Cl)cc2)c2c1CCCC2 (stereo not shown) ; IC50 = 148

Data point: CC12CCC(C1)C(C)(C)C2NC(=O)Nc1nn(C2CCCCC2)c2c1CCCC2 (stereo not shown) ; IC50 = 1580

Data point: CC(NC(=O)c1nn(C2CCCCC2)c2c1CC(CO)CC2)C12CC3CC(CC(C3)C1)C2 (stereo not shown) ; IC50 = 2400
